B1: mRNA-splicing (parent)
chain: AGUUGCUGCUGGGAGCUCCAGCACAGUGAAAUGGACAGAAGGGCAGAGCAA

- Variants of: B1
- assay.text: exon inclusion enrichment index; higher = more inclusion; WT1 exon 5 minigene, HEK293
Tag: satisfied if measured exon inclusion enrichment index is not below 2, not satisfied if it is.

## Input Evaluate G5C C6G U7C U10C U32G : exon inclusion enrichment index at minimum 2?
## Output not satisfied

## Input Same again, this time with G5C C6G U7C U10C G43A C44G
## Output satisfied

## Input Would you mind doing C6A U7A C9A U10A C18G C19A as well?
## Output not satisfied

## Input Record: G5C C6A U7C G8A U10A A14G
## Output not satisfied

## Input Do the same for G5C C6G U7C U10C G48C please
## Output satisfied

## Input Let us now turn to G5A C6G U7G C9A C18G
## Output not satisfied

## Input Cool, now G5C C6U G8C C9A U10C
## Output satisfied

## Input Please give the result for G5U G8U C9U U10A too.
## Output not satisfied

## Input Lookup G5C C6G U7C U10C G43A C44A
## Output satisfied

## Input Now the same for C6A U7A C9A U10A C24U A25C
## Output satisfied

## Input Record: C6G U7C G8A U10A
## Output not satisfied

## Input Quick one: G5C C6A U7C G8A U10A U17G
## Output not satisfied

## Input Proceed to G5C C6A U7C G8A U10A A30C A31C
## Output not satisfied

## Input Param item: G5A C6G U7G C9A A31G U32G
## Output not satisfied

## Input Check G5C C6G U7C U10C G26A U27G too.
## Output satisfied

## Input Quick one: G5C C6A U7C G8A U10A G12C G13C
## Output not satisfied

## Input Now consider U3G U4G C6A U7C C9A U10C and answer again.
## Output not satisfied

## Input Now the same for U3A U4G C6A U7A C9A U10A
## Output not satisfied

## Input What do you have for C6A U7C C9A U10C G46U A47C ?
## Output satisfied

## Input And then G5A C6U U7A G8U C9A G42A , what is it?
## Output not satisfied

## Input Thanks! And G5A C6G U7G C9A A25G ?
## Output not satisfied

## Input Also, G28A A29U please.
## Output not satisfied
